tested on: SF-539 CNS; assay: NCI-60 one-dose screen, 48 h (100 = growth as untreated, 0 = no growth, -100 = all killed); settings: 10 µM unless noted
About 83,000 compounds went through this panel and 20% of them were active in at least one assay; those are over-represented in the sample as a whole.
Param threshold (60%) applies to growth; output Met when value >= threshold, Not met when value < threshold.

* Cn1ccnc1C(=O)/C=C/c1ccc(NC(=O)Nc2ccc(F)cc2)cc1 | Not met
* COc1cc2nc(-c3ccc(Cl)cc3)cc(OCCCNCC3CCCO3)c2cc1OC (stereo not given) | Not met
* c1ccc2c(NCCCn3ccnc3)c3oc4ccccc4c3nc2c1 | Not met
* CCN1C(=S)N(CC)C2C1NN=C1SC(c3ccccc3)=CC(=O)N12 (stereo not given) | Met
